Target: Gal(b1-4)GlcNAc(b1-6)GalNAc
Experiment: glycan array binding signal (z-score within array); higher = stronger binding
Settings: glycan notation: IUPAC condensed, linker removed
This is one part of a sample in which the strongest signals are shown more often than they occur.
Would you kindly list glycan array binding signal (z-score) for each of these binders?
Provide a numeric answer; units are not to be included.

Prompt line: Supply reported glycan array binding signal (z-score) belonging to this binder: DrGal3 (Danio rerio) (protein) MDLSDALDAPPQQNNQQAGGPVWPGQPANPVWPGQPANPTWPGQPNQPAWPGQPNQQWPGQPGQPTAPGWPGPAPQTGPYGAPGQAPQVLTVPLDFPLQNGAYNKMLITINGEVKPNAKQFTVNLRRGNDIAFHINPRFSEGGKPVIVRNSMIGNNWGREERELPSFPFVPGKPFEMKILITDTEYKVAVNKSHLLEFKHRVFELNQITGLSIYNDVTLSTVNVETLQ
Response line: -0.192

Prompt line: Identify measured glycan array binding signal (z-score) associated with SalT (Orysata sativa) (protein) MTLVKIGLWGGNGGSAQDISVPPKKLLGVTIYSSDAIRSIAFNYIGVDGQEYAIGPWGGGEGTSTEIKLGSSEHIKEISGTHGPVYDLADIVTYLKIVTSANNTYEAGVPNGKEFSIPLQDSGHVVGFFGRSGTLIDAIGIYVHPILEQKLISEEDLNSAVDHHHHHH
Response line: -0.307

Prompt line: Look up glycan array binding signal (z-score) of OGAN (protein) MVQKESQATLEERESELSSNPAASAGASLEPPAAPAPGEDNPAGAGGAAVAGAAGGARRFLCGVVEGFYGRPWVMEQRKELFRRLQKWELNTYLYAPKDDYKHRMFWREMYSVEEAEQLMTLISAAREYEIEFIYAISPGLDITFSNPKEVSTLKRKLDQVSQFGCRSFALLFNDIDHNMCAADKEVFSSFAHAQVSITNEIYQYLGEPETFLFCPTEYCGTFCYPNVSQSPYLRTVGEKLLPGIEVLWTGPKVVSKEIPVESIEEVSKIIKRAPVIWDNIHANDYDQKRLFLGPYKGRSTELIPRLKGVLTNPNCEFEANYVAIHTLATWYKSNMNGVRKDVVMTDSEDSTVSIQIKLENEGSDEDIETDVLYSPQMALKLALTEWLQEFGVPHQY and report it.
Response line: -0.053

Prompt line: Provide glycan array binding signal (z-score) value for the following binder: CCL1 (Coprinopsis cinerea) (protein) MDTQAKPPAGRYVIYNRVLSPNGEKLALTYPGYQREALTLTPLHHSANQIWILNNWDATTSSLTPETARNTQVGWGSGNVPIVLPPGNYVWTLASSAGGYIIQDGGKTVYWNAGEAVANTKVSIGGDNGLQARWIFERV
Response line: -0.142

Prompt line: Give the reported glycan array binding signal (z-score) for this binder. STA (Solanum tuberosum) (protein) NASAPLPYPQCGLKKGGGKCIKTGECCSIWGWCGTTSDYCAPGYCQKQCPGPYPQGRCGWQANGKSCPTGTGQCCSNAGWCGTTSDYCAPNNCQSQCKLPPPPPSPPPPPPSPPPPSPPPPPPSPPPPSPSPPPPPPSPPPPSPPPPSPPPPSPPPPPSPSPPPPPPSPPPPPPPLPYPQCGMKKGGGKCIKTGECCSIWGWCGTTSKYCSPGYCQMQCPDPYPEGRCGWQANGKSCPTGTGQCCSNAGWCGTTSAYCAPVNCQAQCNTTTLTSPIKNRMRGIESFMLNVV
Response line: 2.69
